Measured inhibition, listed per entry.
- measured target: Nuclear receptor coactivator 2 (Homo sapiens)
- test name: SRC2 coactivator transcriptional activity inhibitors, confirmation, cell-based, luminescence, HEK293, triplicate (AID 652008);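 note: 0% = DMSO-treated cells and 100% = Gossypol at 36 µM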
- details: HEK293 GAL4-SRC2 luciferase reporter, at 8.9 µM, stronger effect = higher value
Just the number in %, nothing appended.

CCCC(=O)NC(c1ccc(Cl)cc1Cl)c1ccc2cccnc2c1O (configuration not stated) ... 17.2
O=S(=O)(c1ccc(Cl)cc1)N1CCCC1c1nc(-c2ccc(Cl)cc2)no1 (configuration not stated) ... -14.7
c1ccc(CCNc2ncnc3scc(C4COc5ccccc5O4)c23)cc1 (configuration not stated) ... -10.3

Returns the measured inhibition for the input molecule. Input: `Cc1ccc(-c2noc(CCCC(=O)NC3CCCC3)n2)cc1` 42.4

Returns the measured inhibition for the input molecule. Input: COCCN(C(=O)CCC(=O)Nc1nccs1)C(C(=O)NC(C)(C)C)c1ccc(C)cc1 (configuration not stated) 5.44

Returns the measured inhibition for the input molecule. Input: `Cc1cc2c(cc1C)C(=O)NC(C)(C)C2` 28.2

Returns the measured inhibition for the input molecule. Input: `COc1cc(C=CC(=O)c2cc(OC)c(OC)c(OC)c2)cc(OC)c1OC` 73

Returns the measured inhibition for the input molecule. Input: `COc1cc(/C=C/C(=O)c2ccc3c(c2)OCCO3)cc(Br)c1OCC(=O)N(C)C` 50.3

Returns the measured inhibition for the input molecule. Input: `C[n+]1cc2c3c(ccc2c2ccc4cc5c(cc4c21)OCO5)OCO3` 98.7

Returns the measured inhibition for the input molecule. Input: `Cc1ccc(C(=O)N/N=C/c2ccc([N+](=O)[O-])s2)cc1` 92.4

Returns the measured inhibition for the input molecule. Input: O=C(c1c[nH]c2ccccc12)C(Cl)c1ccccc1 (configuration not stated) 33.8
